Test system: RXF 393
METHOD NOTES: NCI tumour cell line growth inhibition, 48 h
The source made the active and inactive calls. Rule as the data show it: active = GI50 up to about 1.1 µM and inactive = higher.
Allowed answers: active, inactive

Some solved cases for reference:
MOLECULE	TESTED ON	ASSIGNED CLASS
O=[N+]([O-])/C(C(Cl)=C(Cl)Cl)=C(\SCc1ccccc1)N1CCCCC1	RXF 393	inactive
CC(C)(C)[Si](C)(C)O/N=C\c1cccc(O[Si](C)(C)C(C)(C)C)c1	RXF 393	inactive

Short answer needed: outcome of this test for COC1/C=C/C(C)C(OC)CC(O)/C=C/C(C)C(C(C)C(OC)C(C)CCC(=O)C(C)C(C/C=C/N(C)C=O)OC)OC(=O)/C=C/C=C(\C)CC(OC)CC2=CC(=O)O[C@@H](C(C)C(OC)C1)[C@H]2O (some centres undefined) ?
active

GET /call?item= [O-][S+](Cc1ccccc1)c1ccccc1Cn1cccc1 (centres undefined) returns the recorded outcome of this test.
inactive

For this molecule, state the assay outcome: COC(=O)CC(NC(=O)OCc1ccccc1)C(C(C)=O)C(=O)OCc1ccccc1 (centres undefined)
inactive

How did this test come out for `CCCCNC(=O)C1=C(C)NC(C)=C(C(=O)NCCCC)C1` ?
inactive

What did this assay record as the result for `O=C(O)C1(C(=O)O)CC1(C(=O)O)C(=O)O` ?
inactive

Field: outcome | Entry: `Cc1c2cccc-2c(OCCO)cc2c3ccccc3n(C)c12`
inactive

// return assay outcome for C=C1CN2CCc3c([nH]c4ccccc34)C2CC1CC(=O)N(C)C (centres undefined)
inactive
